Test system: SF-539 CNS
Experiment: NCI tumour cell line growth inhibition, 48 h
Attribute Measured: TGI (µM)
Answers are plain numbers, in µM.

Example cases with answers are listed next.
{"Compound": "O=C1/C(=C/c2ccc([N+](=O)[O-])cc2)Sc2scc(-c3cccc([N+](=O)[O-])c3)[n+]21", "Reported Result": 6.44}
{"Compound": "O=C1c2ccccc2C(=O)c2c1sc1nc3ccccc3n21", "Reported Result": 3.81}
{"Compound": "O=C1Nc2cc(-c3ccc(O)cc3)ccc2/C1=C/c1ccc[nH]1", "Reported Result": 1.53}
{"Compound": "COc1ccc(C(=O)c2cc(C)c(OC)c(C)c2)c(OC)c1OC(=O)C(Cl)Cl", "Reported Result": 0.0702}
{"Compound": "COc1ccc(/C=N/C2=NNC(C)(c3ccccc3O)N2C(Cc2c[nH]c3ccccc23)C(=O)O)cc1 (stereo unspecified)", "Reported Result": 10.3}
{"Compound": "Cc1ccc(C2SCc3nc4ccccc4n32)cc1 (stereo unspecified)", "Reported Result": 5.47}

Lab note: each compound below needs its TGI filled in.
1. COC(=O)C(Br)(C(=O)OC)C(Br)C(Br)C(Br)c1ccccc1 (stereo unspecified)
2. CCN1Cc2c(/C=C/c3ccccc3)nc3ccc(OC)cc3c2N(c2cccc(Cl)c2)C1

4.09
3.91

Lab note: each compound below needs its TGI filled in.
1. CN(C)c1cccc2c(S(=O)(=O)NCCCNCCN)cccc12
2. CCC1C[N+]2=C(c3cc(OC)c(OC)cc3CC2)c2c1cc1n2CCc2cc(OC)c(OC)cc2-1 (stereo unspecified)
3. Nc1csc(-c2scc3c2OCCO3)c1N
4. CCCCCCCCCCCCCCCCCCOC(COP(=O)(O)OCC1OC(n2cc(F)c(=O)[nH]c2=O)CC1O)COP(=O)(O)OCC1OC(n2ccc(N)nc2=O)C(O)C1O (stereo unspecified)

[49.7, 14.9, 47.4, 31.1]

Entry source: PubChem BioAssay (NCI)
